So I've got a bunch of molecules here, and I need their IC50 values.
- studyTarget: HDAC1 (Homo sapiens, UniProt Q13547)
- Sequence (Q13547 whole entry): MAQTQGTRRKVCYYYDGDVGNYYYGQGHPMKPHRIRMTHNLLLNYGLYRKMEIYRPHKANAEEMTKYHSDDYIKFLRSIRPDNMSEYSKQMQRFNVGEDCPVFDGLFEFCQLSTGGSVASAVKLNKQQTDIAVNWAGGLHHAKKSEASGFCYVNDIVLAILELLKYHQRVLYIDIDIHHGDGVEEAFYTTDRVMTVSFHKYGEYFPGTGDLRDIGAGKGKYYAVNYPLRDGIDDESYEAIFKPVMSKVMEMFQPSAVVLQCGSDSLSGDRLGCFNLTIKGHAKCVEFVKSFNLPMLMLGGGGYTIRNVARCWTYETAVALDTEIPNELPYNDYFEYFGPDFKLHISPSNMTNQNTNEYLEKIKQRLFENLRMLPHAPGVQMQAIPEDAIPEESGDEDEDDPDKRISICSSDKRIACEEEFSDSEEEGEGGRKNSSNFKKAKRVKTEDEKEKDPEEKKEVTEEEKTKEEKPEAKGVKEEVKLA
- procedureText: Test of HDAC activities, HDAC1 Fluorimetric Drug Discovery Assay Kit
- Type: biochemical
- Set-up: purchased Enzolifesciences BML-AK511
- runParameters: samples at 100, 1000, 10000 nM; 37° C. 60 minutes; fluorescence Ex 390, Em 460; read-out: HDAC inhibitory activities, HDAC1
Answers are plain numbers, in µM.

Observe how each entry below is paired with its result.
I looked up "CCN1CCN(C(=O)N(Cc2ccc(C(=O)NO)cc2)c2cccc(C(F)(F)F)n2)CC1" and its IC50 for HDAC1 (Homo sapiens, UniProt Q13547) was 1.85

I looked up "O=C(NO)c1ccc(CN(C(=O)N2CCC(O)CC2)c2cccc(-c3ccc4c(c3)OCO4)c2)c(F)c1" and its IC50 for HDAC1 (Homo sapiens, UniProt Q13547) was 0.654

I looked up "O=C(NO)c1ccc(CN(C(=O)N2CCCCC2)c2cccc(C(F)(F)F)c2)cc1" and its IC50 for HDAC1 (Homo sapiens, UniProt Q13547) was 2.37

// next item, IC50 requested
I looked up "CN1CCN(C(=O)N(Cc2ccc(C(=O)NO)cc2)c2ccc(F)c(Cl)c2)CC1" and its IC50 for HDAC1 (Homo sapiens, UniProt Q13547) was 0.19
